biological target: Glucagon-like peptide 1 receptor (Homo sapiens, UniProt P43220); assay: Agonist activity at human GLP-1R expressed in CHO-K1 cells assessed as increase in cAMP level incubated for 30 mins
Sequence (P43220 whole entry): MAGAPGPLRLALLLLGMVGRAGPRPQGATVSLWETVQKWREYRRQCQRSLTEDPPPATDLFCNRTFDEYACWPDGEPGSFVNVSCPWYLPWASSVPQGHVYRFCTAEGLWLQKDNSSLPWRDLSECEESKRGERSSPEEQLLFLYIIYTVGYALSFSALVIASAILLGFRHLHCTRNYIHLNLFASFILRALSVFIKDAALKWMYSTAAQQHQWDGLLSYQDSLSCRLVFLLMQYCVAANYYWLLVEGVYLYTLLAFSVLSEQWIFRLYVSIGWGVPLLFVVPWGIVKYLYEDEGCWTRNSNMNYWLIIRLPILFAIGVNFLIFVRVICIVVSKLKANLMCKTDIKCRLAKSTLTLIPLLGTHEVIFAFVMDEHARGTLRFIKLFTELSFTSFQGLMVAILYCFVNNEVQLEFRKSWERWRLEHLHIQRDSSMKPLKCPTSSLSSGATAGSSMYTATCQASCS
Where a SMILES comes first, the peptide text is derived from it. Bridges are numbered along the chain shown (N, C = ends). [ ]: non-standard residue; d: D form. Bip(2'-Et-4'-OMe) = CCc1cc(OC)ccc1-c1ccc(C[C@H](N)C(=O)O)cc1; αMePhe(2,6-F2) = C[C@](N)(Cc1c(F)cccc1F)C(=O)O; Bip = N[C@@H](Cc1ccc(-c2ccccc2)cc1)C(=O)O; hhPhe = N[C@@H](CCCc1ccccc1)C(=O)O; Aib = CC(C)(N)C(=O)O
Measured metric: pEC50
The read-out pEC50 is expressed as -log10 of concentration in moles per litre.

Challenge: Consider the compound shown here: CCc1cc(OC)ccc1-c1ccc(C[C@@H]2NC(=O)[C@H](CC(=O)O)NC(=O)[C@H](CO)NC(=O)[C@@H]3CSSC[C@@H](C(=O)O)NC(=O)[C@H](CSSC[C@H](NC(=O)CNC(=O)[C@H](CCC(=O)O)NC(=O)C(C)(C)NC(=O)[C@H](Cc4cnc[nH]4)NC(C)=O)C(=O)N[C@@](C)(Cc4c(F)cccc4F)C(=O)N3)NC(=O)[C@H](CC(C)C)NC(=O)[C@H](CCCc3ccccc3)NC2=O)cc1 (Ac-H[Aib]EGC[αMePhe(2,6-F2)]CSD[Bip(2'-Et-4'-OMe)][hhPhe]LCC-OH; disulfide 5-13, 7-14) What is its recorded pEC50?
Response given: 7.16

Challenge: Consider the compound shown here: CCc1cc(OC)ccc1-c1ccc(C[C@@H]2NC(=O)[C@H](CC(=O)O)NC(=O)[C@H](CO)NC(=O)[C@@H]3CSSC[C@@H](C(=O)O)NC(=O)[C@H](CSSC[C@H](NC(=O)CNC(=O)[C@H](CCC(=O)O)NC(=O)C(C)(C)NC(=O)[C@@H](N)Cc4cnc[nH]4)C(=O)N[C@@](C)(Cc4c(F)cccc4F)C(=O)N3)NC(=O)[C@H](Cc3ccc(-c4ccccc4)cc3)NC(=O)[C@H](CCCc3ccccc3)NC2=O)cc1 (H-H[Aib]EGC[αMePhe(2,6-F2)]CSD[Bip(2'-Et-4'-OMe)][hhPhe][Bip]CC-OH; disulfide 5-13, 7-14) What is its recorded pEC50?
Response given: 5.12
